inhibition at 72 h, 2 µM by entry:
- ASSAY INFO: Cytotoxicity against human KB/VCR cells assessed as inhibition of cell proliferation at 2 uM measured after 72 hrs by CCK8 assay relative to control
- Format: cell-based
PROPERTY NAME: inhibition at 72 h, 2 µM (%)

CCCCCC(=O)O[C@@H]1[C@@H]2[C@@H](OC(C)=O)[C@]3(OC2(C)C)[C@H](C)C[C@@H](OC(C)=O)[C@H](OC(C)=O)[C@@]3(C)[C@H]1OC(=O)c1ccccc1 | -3.1
CC(=O)O[C@@H]1[C@@H]2[C@@H](OC(C)=O)[C@]3(OC2(C)C)[C@H](C)C[C@@H](OC(C)=O)[C@H](OC(C)=O)[C@@]3(C)[C@@H]1OC(=O)c1ccccc1 | 2.7
CC(=O)O[C@@H]1C[C@@H](C)[C@]23OC(C)(C)[C@H](C[C@H](OC(=O)c4ccccc4)[C@]2(C)[C@H]1OC(C)=O)[C@H]3OC(=O)/C=C/c1ccccc1 | -5.3
COc1cc2c(cc1OC)CN(CCc1ccc(-n3nnc(-c4cc(OC)c(OC)cc4NC(=O)c4cc(=O)c5ccccc5o4)n3)cc1)CC2 | 23.1
CC(=O)O[C@H]1[C@@H]2[C@@H](OC(C)=O)[C@]3(OC2(C)C)[C@H](C)C[C@@H](OC(C)=O)[C@H](OC(C)=O)[C@@]3(C)[C@H]1OC(=O)c1ccccc1 | -1.2
CC(=O)O[C@H]1CC[C@@H](C)[C@]23OC(C)(C)[C@H](C[C@H](OC(=O)c4ccccc4)[C@]12C)[C@H]3OC(C)=O | -1.1
CC(=O)O[C@@H]1[C@@H]2[C@@H](OC(C)=O)[C@]3(OC2(C)C)[C@H](C)CC[C@H](OC(C)=O)[C@@]3(C)[C@H]1OC(=O)c1ccccc1 | 2.4
CC(=O)O[C@H]1[C@@H]2[C@@H](OC(=O)/C=C/c3ccccc3)[C@]3(OC2(C)C)[C@H](C)C[C@@H](OC(C)=O)[C@H](OC(C)=O)[C@@]3(C)[C@H]1OC(=O)c1ccccc1 | -0.6
CC(=O)O[C@@H]1[C@H]2[C@H](O)[C@H](OC(=O)c3ccccc3)[C@]3(C)[C@@H](OC(C)=O)[C@H](O)C[C@@H](C)[C@@]13OC2(C)C | -1.9
CC(=O)O[C@H]1[C@@H]2[C@@H](OC(=O)/C=C/c3ccccc3)[C@]3(OC2(C)C)[C@H](C)C[C@H](O)[C@H](OC(C)=O)[C@@]3(C)[C@H]1OC(=O)c1ccccc1 | -20.3
CC(=O)O[C@@H]1C[C@@H](C)[C@]23OC(C)(C)[C@H]([C@@H](O)[C@H](OC(=O)c4ccccc4)[C@@]2(C)[C@H]1OC(C)=O)[C@H]3OC(=O)/C=C/c1ccccc1 | 3.3
CC(=O)O[C@@H]1[C@@H]2[C@@H](OC(C)=O)[C@]3(OC2(C)C)[C@H](C)C[C@H](OC(=O)/C=C/c2ccccc2)[C@H](OC(C)=O)[C@@]3(C)[C@@H]1OC(=O)c1ccccc1 | 0.7
CC(=O)O[C@H]1[C@@H]2[C@@H](OC(=O)c3cccnc3)[C@]3(OC2(C)C)[C@H](C)C[C@H](OC(C)=O)[C@@H](OC(C)=O)[C@@]3(C)[C@H]1OC(=O)c1ccccc1 | -3
CC(=O)OC[C@]12[C@H](OC(C)=O)C(=O)[C@@H]3[C@@H](O)[C@]1(OC3(C)C)[C@H](C)[C@@H](O)[C@H](OC(C)=O)[C@@H]2OC(C)=O | -0.5
CC(=O)O[C@H]1C[C@@H](C)[C@]23OC(C)(C)[C@H](C[C@H](OC(=O)c4ccccc4)[C@@]2(C)[C@@H]1OC(C)=O)[C@H]3OC(=O)c1ccccc1 | 0
CC(=O)O[C@H]1CC[C@@H](C)[C@]23OC(C)(C)[C@H](C[C@H](OC(=O)c4ccccc4)[C@]12C)[C@H]3OC(=O)c1ccccc1 | -1.8
CC(=O)OC[C@]12[C@H](OC(C)=O)C(=O)[C@@H]3[C@@H](OC(C)=O)[C@]1(OC3(C)C)[C@H](C)C[C@H](O)[C@@H]2OC(C)=O | -2
CC(=O)OC[C@]12[C@H](OC(C)=O)C(=O)[C@@H]3[C@@H](O)[C@]1(OC3(C)C)[C@H](C)[C@@H](OC(C)=O)[C@H](OC(C)=O)[C@@H]2OC(C)=O | 1.6
CC(=O)O[C@@H]1[C@@H]2[C@@H](OC(C)=O)[C@]3(OC2(C)C)[C@H](C)CC[C@H](OC(C)=O)[C@@]3(C)[C@@H]1OC(=O)c1ccccc1 | 1.6
CC(=O)OC[C@]12[C@H](OC(C)=O)C(=O)[C@@H]3[C@@H](OC(C)=O)[C@]1(OC3(C)C)[C@H](C)[C@@H](O)[C@H](OC(C)=O)[C@@H]2OC(C)=O | -5.3

The measured values listed here are drawn from ChEMBL document CHEMBL4811234.
